Values compiled from patent US12331040B2.

# Test system: Z138 cells
# assay-procedure: MTT cell proliferation assay
# Assay type: cell-based
# condition-summary: Homo sapiens, Z-138, Z138 cells; approximately 64-72 hours incubation; read-out: MTT Assay IC50 Z-138
readout: IC50

[[record]]
molecule = "CC1(C)CNCCN1C(=O)c1ccc(-c2cc(C(F)(F)F)c3oc(CNC(=O)/C=C/c4ccc(N)nc4)cc3c2)cc1"
measured_result = "100 to 5000 nM"

[[record]]
molecule = "Nc1ccc(/C=C/C(=O)NCc2cc3cc(-c4ccc(F)c(C(=O)N5CCOCC5)n4)cc(Cl)c3o2)cn1"
measured_result = "< 100 nM"

[[record]]
molecule = "CC1(O)CCN(C(=O)c2ccc(-c3cc(C(F)(F)F)c4oc(CNC(=O)/C=C/c5ccc(N)nc5)cc4c3)nc2)CC1"
measured_result = "< 100 nM"

[[record]]
molecule = "Nc1ccc(/C=C/C(=O)NCc2cc3cc(-c4ccc(C(=O)NNc5cnccn5)cc4)cc(C(F)(F)F)c3o2)cn1"
measured_result = "100 to 5000 nM"

[[record]]
molecule = "CC1(O)CN(C(=O)c2ccc(-c3cc(C(F)(F)F)c4oc(CNC(=O)/C=C/c5ccc(N)nc5)cc4c3)nc2)C1"
measured_result = "100 to 5000 nM"


Answer for every listed entry: what is its IC50? The entries follow.
1. Nc1ccc(/C=C/C(=O)NCc2cc3cc(-c4ccc(C(=O)N5CCNCC5)cn4)cc(C(F)(F)F)c3o2)cn1
2. Nc1ccc(/C=C/C(=O)NCc2cc3cc(-c4ccc(S(=O)(=O)N5CCOCC5)cc4)cc(Cl)c3o2)cn1
3. Nc1ccc(/C=C/C(=O)NCc2cc3cc(-c4ccc(C(=O)N5CCC(O)(C(F)(F)F)C5)cn4)cc(C(F)(F)F)c3o2)cn1 (centres unmarked)
4. Nc1ccc(/C=C/C(=O)NCc2cc3cc(-c4ccc(C(=O)N5CCC[C@H]5C(F)(F)F)cn4)cc(C(F)(F)F)c3o2)cn1
5. Nc1ccc(/C=C/C(=O)NCc2cc3cc(-c4ccc(C(=O)N5CC6CC5CO6)cn4)cc(C(F)(F)F)c3o2)cn1 (centres unmarked)
6. Nc1ccc(/C=C/C(=O)NCc2cc3cc(-c4ccc(C(=O)N5CC6(COC6)C5)cc4)cc(C(F)(F)F)c3o2)cn1
7. Nc1ccc(/C=C/C(=O)NCc2cc3cc(-c4ccc(C(=O)N5CCC[C@@H]5C(F)(F)F)cn4)cc(C(F)(F)F)c3o2)cn1
8. Nc1ccc(/C=C/C(=O)NCc2cc3cc(-c4ccc(C(=O)N5CCOCC5)cc4)cc(C(F)(F)F)c3o2)cn1

stdout:
1: < 100 nM; 2: < 100 nM; 3: < 100 nM; 4: 5000 to 10000 nM; 5: 100 to 5000 nM; 6: < 100 nM; 7: 100 to 5000 nM; 8: < 100 nM

stdin: Param item = O=C(/C=C/c1ccccn1)NCc1cc2cc(-c3ccc(C(=O)N4CCOCC4)cc3)cc(Cl)c2o1 ; retrieve measured IC50.
stdout: 100 to 5000 nM

###

# Test system: NCI-H187 cells
# assay-procedure: MTT cell proliferation assay
# Assay type: cell-based
# condition-summary: Homo sapiens, 72-hour MTT
readout: IC50
Phrase the answer as number then unit, nothing more needed.

stdin: Param item = Nc1ccc(/C=C/C(=O)NCc2cc3cc(-c4ccc(C(=O)N5CCC(F)(F)CC5)cn4)cc(C(F)(F)F)c3o2)cn1 ; retrieve measured IC50.
stdout: 70 nM
